- assay-system: Factor X (FX), P00742
- Sequence (P00742 whole entry, looked up): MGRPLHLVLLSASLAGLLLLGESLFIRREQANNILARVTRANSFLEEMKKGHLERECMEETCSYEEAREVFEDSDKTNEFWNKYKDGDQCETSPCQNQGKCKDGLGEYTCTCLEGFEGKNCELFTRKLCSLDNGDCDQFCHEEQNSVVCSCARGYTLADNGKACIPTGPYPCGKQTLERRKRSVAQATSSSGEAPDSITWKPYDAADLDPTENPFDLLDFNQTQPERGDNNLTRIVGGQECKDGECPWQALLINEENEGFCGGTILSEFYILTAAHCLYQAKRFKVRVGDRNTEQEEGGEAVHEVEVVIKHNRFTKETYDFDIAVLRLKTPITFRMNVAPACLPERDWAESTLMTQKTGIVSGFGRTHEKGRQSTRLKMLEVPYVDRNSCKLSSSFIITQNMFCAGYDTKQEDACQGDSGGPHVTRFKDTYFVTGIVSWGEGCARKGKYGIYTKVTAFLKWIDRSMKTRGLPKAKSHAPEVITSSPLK
quantity-kind: kcat of FX activation by FIXa in the Xase complex (FVIIIa, PC/PS vesicles, Ca2+)

Qu. Using the record for FIXa-D104N/K106S/N260S/R318Y/R338E/R403E/E410N (protein) chain 1: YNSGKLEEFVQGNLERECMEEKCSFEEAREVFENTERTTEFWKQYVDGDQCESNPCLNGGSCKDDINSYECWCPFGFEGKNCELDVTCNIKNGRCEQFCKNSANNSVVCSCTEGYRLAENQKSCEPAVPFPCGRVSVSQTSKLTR chain 2: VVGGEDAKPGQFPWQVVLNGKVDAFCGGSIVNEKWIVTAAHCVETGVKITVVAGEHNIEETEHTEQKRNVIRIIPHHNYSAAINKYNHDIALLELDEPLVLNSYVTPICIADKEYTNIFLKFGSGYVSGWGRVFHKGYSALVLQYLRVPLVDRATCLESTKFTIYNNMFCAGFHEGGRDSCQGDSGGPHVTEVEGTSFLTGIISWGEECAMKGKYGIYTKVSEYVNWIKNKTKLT , report its kcat of FX activation by FIXa in the Xase complex (FVIIIa, PC/PS vesicles, Ca2+).
Ans. 5.4 s⁻¹
